Let's look at some compounds and their measured cytotoxicity percentage.
# Test system: human colon HCT-116 cancer cell line
# assay_comment: MTT cytotoxicity assay, colon HCT-116 cancer cell line
# condition_info: HCT-116, 10 µg/mL
// units = %; emit number, no label

compound	target	measure_name	recorded_measurement
CCCC(NC(=O)C(CC(C)C)NC(=O)OC(C)(C)C)C(=O)OC1CCC2(C)C(CCC3(C)C2C(=O)C=C2C4CC(C)(C(=O)NCC(=O)NCC(=O)OCC)CCC4(C)CCC23C)C1(C)C (stereo not drawn) [Compound 2]	human colon HCT-116 cancer cell line	cytotoxicity percentage	92.63

The reported cytotoxicity percentage of the compound CC1(C(=O)NCC(=O)NCC(=O)O)CCC2(C)CCC3(C)C(=CC(=O)C4C5(C)CCC(O)C(C)(C)C5CCC43C)C2C1 (stereo not drawn) [Compound 3] was 97.66

cytotoxicity percentage recorded for this compound, CC(C)CC(NC(=O)CNC(=O)CNC(=O)C1(C)CCC2(C)CCC3(C)C(=CC(=O)C4C5(C)CCC(O)C(C)(C)C5CCC43C)C2C1)C(=O)O (stereo not drawn) [Compound 7] , is 98.06

Kindly note the recorded cytotoxicity percentage for COC(=O)C(CC(C)C)NC(=O)CNC(=O)CNC(=O)C1(C)CCC2(C)CCC3(C)C(=CC(=O)C4C5(C)CCC(OC(=O)CNC(=O)CNC(=O)OC(C)(C)C)C(C)(C)C5CCC43C)C2C1 (stereo not drawn) [Compound 8] , which is 97.10

====

Parameter: IC50. Scope: all listed entries.
# Tested on: human breast MCF-7 cancer cell line
# assay_comment: MTT cytotoxicity assay, breast MCF-7 cancer cell line
# Format: cell-based
# condition_info: Homo sapiens, MCF7; MTT, mean of three replicates; read-out: IC50 (µg/mL) ± SD MCF-7
Residues, ends and D or L forms follow the SMILES beside them. *: point of attachment. X1 = CC1(C(=O)*)CCC2(C)CCC3(C)C(=CC(=O)C4C5(C)CCC(O)C(C)(C)C5CCC43C)C2C1
Please state the number and follow it with the unit.

molecule	IC50
CC1(C(=O)NCC(=O)NCC(=O)O)CCC2(C)CCC3(C)C(=CC(=O)C4C5(C)CCC(O)C(C)(C)C5CCC43C)C2C1 (stereo not shown)	5.1 µg/mL
COc1cccc2c1C(=O)c1c(O)c3c(c(O)c1C2=O)C[C@@](O)(C(=O)CO)C[C@@H]3O[C@H]1C[C@H](N)[C@H](O)[C@H](C)O1 [DOX, doxorubicin, reference compound]	7.07 µg/mL
CCCC(NC(=O)C(CC(C)C)NC(=O)OC(C)(C)C)C(=O)OC1CCC2(C)C(CCC3(C)C2C(=O)C=C2C4CC(C)(C(=O)NCC(=O)NCC(=O)OCC)CCC4(C)CCC23C)C1(C)C (stereo not shown)	7.7 µg/mL
COC(=O)C(CC(C)C)NC(=O)CNC(=O)CNC(=O)C1(C)CCC2(C)CCC3(C)C(=CC(=O)C4C5(C)CCC(OC(=O)CNC(=O)CNC(=O)OC(C)(C)C)C(C)(C)C5CCC43C)C2C1 (stereo not shown)	6.9 µg/mL
CC1(C(=O)NCC(=O)NCC(=O)NCC(=O)NCC(=O)O)CCC2(C)CCC3(C)C(=CC(=O)C4C5(C)CCC(O)C(C)(C)C5CCC43C)C2C1 (stereo not shown) [Compound 5] (X1-GGGG-OH)	5 µg/mL

Recorded IC50 (molecule CC(C)CC(NC(=O)CNC(=O)CNC(=O)C1(C)CCC2(C)CCC3(C)C(=CC(=O)C4C5(C)CCC(O)C(C)(C)C5CCC43C)C2C1)C(=O)O (stereo not shown) ): 3.7 µg/mL

For this molecule ( CCOC(=O)CNC(=O)CNC(=O)CNC(=O)CNC(=O)C1(C)CCC2(C)CCC3(C)C(=CC(=O)C4C5(C)CCC(O)C(C)(C)C5CCC43C)C2C1 (stereo not shown) [Compound 4] (X1-GGGG-OEt) ), measured IC50 is 6.1 µg/mL

Cited source: paper PMC8346995
